Tested on: 997537-175-T-J1-PDC complex spheroid viability;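 also: spheroids exposed to the agents for 7 days; 100% = DMSO vehicle control viability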
Test: Anticancer human tumor 997537-175-T-J1-PDC patient-derived colon adenocarcinoma cell line growth inhibition [GQUAD]
Conditions: second compound 0.316 µM; first compound 3.16 µM; hits give low values
REPORTED PROPERTY: viability, T/C (%)
Report as a plain number; the unit % is understood.

Answered cases to consult:
O=c1[nH]cc(F)c(=O)[nH]1 + Cc1[nH]c2ccc(F)cc2c1-c1nc2c3cccnc3c3ncccc3c2[nH]1 :: 114
COc1ccc([C@@H](O)c2cc(-c3ncnc4cc(N5CCOCC5)ccc34)c(F)cc2Cl)nn1 + Cc1[nH]c2ccc(F)cc2c1-c1nc2c3cccnc3c3ncccc3c2[nH]1 :: 98.9
CC1COCCN1c1cc(-c2ccnn2C)c2ccnc(-c3ccn[nH]3)c2n1 (stereo unspecified) + Cc1cnc(CNC(=O)c2c(=O)c3ccc(N4CCCN(C)CC4)nc3n3c2sc2ccccc23)cn1 :: 48.5
Cc1cccc(N(C)C(=O)C2C(O)CCN2c2nc(C)cc(C(F)(F)F)c2C#N)c1 (stereo unspecified) + Cc1cnc(CNC(=O)c2c(=O)c3ccc(N4CCCN(C)CC4)nc3n3c2sc2ccccc23)cn1 :: 112
CC(=O)O[C@H]1C(=O)[C@@]2(C)[C@H]([C@H](OC(=O)c3ccccc3)[C@]3(O)C[C@H](OC(=O)[C@H](O)[C@@H](NC(=O)c4ccccc4)c4ccccc4)C(C)=C1C3(C)C)[C@]1(OC(C)=O)CO[C@@H]1C[C@@H]2O + CN(C)c1ccc(Nc2c3ccc(NC(=O)CCN4CCCC4)cc3nc3cc(NC(=O)CCN4CCCC4)ccc23)cc1 :: 16.6

Prompt: What measured viability, T/C is associated with C=CCn1c(=O)c2cnc(Nc3ccc(N4CCN(C)CC4)cc3)nc2n1-c1cccc(C(C)(C)O)n1 + Cc1[nH]c2ccc(F)cc2c1-c1nc2c3cccnc3c3ncccc3c2[nH]1 on 997537-175-T-J1-PDC complex spheroid viability?
Completion: 84.4
